# Tested on: ivyleaf morningglory (Ipomoea hederacea, IPOHE)
# Protocol summary: Post-emerge test, greenhouse herbicide activity screening
# Type: in vivo
# Particulars: post-emerge, 63 g ai/ha, 14 days after application, rating scale 0-100
Attribute measured: phytotoxicity rating IPOHE
Answer field: number only, no words.

# annotated cases, reported phytotoxicity rating IPOHE shown
[
  {
    "Compound": "COc1c(Cl)cc(F)c(-n2c(=O)cc(C(F)(F)F)n(C)c2=O)c1NC(=O)c1cccc2ccccc12 [2-74]",
    "Result number": 60
  },
  {
    "Compound": "COc1c(Cl)cc(F)c(-n2c(=O)cc(C(F)(F)F)n(C)c2=O)c1NC(=O)c1ccc(Cl)cc1 [2-56]",
    "Result number": 100
  },
  {
    "Compound": "COc1c(Cl)cc(F)c(-n2c(=O)cc(C(F)(F)F)n(N)c2=O)c1NC(=O)c1ccc2ccccc2c1 [2-77]",
    "Result number": 60
  },
  {
    "Compound": "COc1c(Cl)cc(F)c(-n2c(=O)cc(C(F)(F)F)n(C)c2=O)c1NC(=O)c1cccc(F)c1F [2-41]",
    "Result number": 100
  },
  {
    "Compound": "Cc1ccccc1COC(=O)Nc1c(C)c(Cl)cc(F)c1-n1c(=O)cc(C(F)(F)F)n(C)c1=O [4-56]",
    "Result number": 100
  },
  {
    "Compound": "Cn1c(C(F)(F)F)cc(=O)n(-c2c(F)cc(Cl)c(O)c2NC(=O)c2ccc3ccccc3c2)c1=O [Compound 2-194]",
    "Result number": 95
  }
]

We next turn to a different compound, shown below.
# query: phytotoxicity rating IPOHE of entry COc1c(Cl)cc(F)c(-n2c(=O)cc(C(F)(F)F)n(C)c2=O)c1NC(=O)C(C)=Cc1ccccc1 [2-81] 100

----------
# Test system: lambsquarters (Chenopodium album, CHEAL)
# Protocol summary: Pre-emerge test, greenhouse herbicide activity screening
# Assay type: in vivo
# Particulars: pre-emerge, rate 63 g ai/ha, phytotoxicity rating 0-100 at 14 days after application
Attribute measured: Pre-emerge Herbicidal Activity CHEAL

# annotated cases, reported Pre-emerge Herbicidal Activity CHEAL shown
[
  {
    "Smiles text": "COc1c(Cl)cc(F)c(-n2c(=O)n3n(c2=O)CCCC3)c1NC(C)=O",
    "Pre-emerge Herbicidal Activity CHEAL": 100
  },
  {
    "Smiles text": "COc1c(Cl)cc(F)c(-n2nc(C)n(C(F)F)c2=O)c1NC(=O)c1ccc(F)cc1F",
    "Pre-emerge Herbicidal Activity CHEAL": 100
  },
  {
    "Smiles text": "CCC(=O)Nc1c(Cl)cc(Cl)c(-n2nc(C)n(C(F)F)c2=O)c1N",
    "Pre-emerge Herbicidal Activity CHEAL": 70
  },
  {
    "Smiles text": "COc1c(Cl)cc(F)c(-n2nnn(CCCF)c2=O)c1NC(=O)COCc1ccccc1",
    "Pre-emerge Herbicidal Activity CHEAL": 100
  }
]

# query: Pre-emerge Herbicidal Activity CHEAL of entry COc1cccc(OC)c1OC(=O)Nc1c(C)c(Cl)cc(F)c1-n1c(=O)cc(C(F)(F)F)n(C)c1=O 100

----------
# Test system: field corn (Zea mays L., var. Dekalb 535, CORN)
# Protocol summary: Post-emerge test, crop safety
# Assay type: in vivo
# Particulars: post-emerge, 63 g ai/ha, 14 days after application, rating scale 0-100
Attribute: phytotoxicity rating CORN
Answer field: number only, no words.

[
  {
    "Smiles text": "COc1c(Cl)cc(F)c(-n2c(=O)cc(C(F)(F)F)n(C)c2=O)c1NC(=O)c1ccc(Cl)c(Cl)c1",
    "Tested on": "field corn (Zea mays L., var. Dekalb 535, CORN)",
    "phytotoxicity rating CORN": 70
  }
]

# query: phytotoxicity rating CORN of entry COc1c(Cl)cc(F)c(-n2c(=O)cc(C(F)(F)F)n(C)c2=O)c1NC(=O)c1ccccc1Cl 10

# query: phytotoxicity rating CORN of entry COc1c(Cl)cc(F)c(-n2c(=O)cc(C(F)(F)F)n(C)c2=O)c1N(C(=O)COc1ccccc1)C(=O)COc1ccccc1 50

# query: phytotoxicity rating CORN of entry Cn1c(C(F)(F)F)cc(=O)n(-c2c(F)cc(Cl)c(O)c2NC(=O)c2ncccn2)c1=O 0

# query: phytotoxicity rating CORN of entry COc1c(Cl)cc(F)c(-n2c(=O)cc(C(F)(F)F)n(C)c2=O)c1NC(=O)C(C)=Cc1ccccc1 30

Hello, the source for this data is patent US6355799B1, in case you need it.
